TARGET UNDER TEST: N-terminally GST-tagged mTOR (truncated version: amino acids 1360-2549) (Homo sapiens)
Construct: truncated version: amino acids 1360-2549
Sequence (P42345 1360-2549): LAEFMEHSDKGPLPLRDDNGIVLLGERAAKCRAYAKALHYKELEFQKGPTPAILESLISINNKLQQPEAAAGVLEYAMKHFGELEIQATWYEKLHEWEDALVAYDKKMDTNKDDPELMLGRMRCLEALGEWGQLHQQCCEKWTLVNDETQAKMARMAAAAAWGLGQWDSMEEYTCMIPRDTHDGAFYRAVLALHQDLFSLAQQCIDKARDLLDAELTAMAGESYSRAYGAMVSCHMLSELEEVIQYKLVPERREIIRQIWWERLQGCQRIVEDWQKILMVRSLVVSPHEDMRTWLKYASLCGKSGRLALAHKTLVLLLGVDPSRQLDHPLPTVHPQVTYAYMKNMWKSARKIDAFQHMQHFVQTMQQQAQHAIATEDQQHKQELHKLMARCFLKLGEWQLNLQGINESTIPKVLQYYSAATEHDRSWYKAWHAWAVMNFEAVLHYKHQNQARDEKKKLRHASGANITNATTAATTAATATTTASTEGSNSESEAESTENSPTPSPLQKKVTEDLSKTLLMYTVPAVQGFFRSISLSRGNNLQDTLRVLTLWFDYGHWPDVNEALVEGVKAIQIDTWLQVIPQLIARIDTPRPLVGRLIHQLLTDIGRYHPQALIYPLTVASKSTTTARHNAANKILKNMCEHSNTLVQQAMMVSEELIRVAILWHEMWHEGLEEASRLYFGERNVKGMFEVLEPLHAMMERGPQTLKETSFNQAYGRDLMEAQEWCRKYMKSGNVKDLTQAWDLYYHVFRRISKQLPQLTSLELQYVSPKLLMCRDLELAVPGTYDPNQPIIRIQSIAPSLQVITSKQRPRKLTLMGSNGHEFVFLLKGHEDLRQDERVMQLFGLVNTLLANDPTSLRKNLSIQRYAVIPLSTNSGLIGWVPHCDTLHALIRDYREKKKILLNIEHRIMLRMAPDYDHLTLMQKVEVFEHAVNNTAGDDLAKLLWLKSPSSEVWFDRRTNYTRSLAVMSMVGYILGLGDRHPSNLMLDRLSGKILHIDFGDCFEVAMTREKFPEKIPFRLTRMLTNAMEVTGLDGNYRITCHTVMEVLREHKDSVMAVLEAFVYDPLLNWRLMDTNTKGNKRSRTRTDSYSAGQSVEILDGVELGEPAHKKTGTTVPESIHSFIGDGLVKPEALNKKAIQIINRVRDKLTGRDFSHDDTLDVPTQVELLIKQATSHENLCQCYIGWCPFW
ASSAY METHOD TEXT: In vitro mTOR binding assay (LanthaScreen TR-FRET)
CONDITIONS: 10 nM Tracer 314, 30 min RT
REPORTED PROPERTY: IC50 (nM)
All answers are understood in nM, so give the number only.

-- ask Param readout= IC50; system= N-terminally GST-tagged mTOR (truncated version: amino acids 1360-2549) (Homo sapiens); entry= C[C@H]1COCCN1c1nc(-c2cnc(N)cc2C(F)F)nc(N2CCOC[C@@H]2C)n1 [Compound 6] ; returns value.
-- reply 23
